Test system: HL-60/vinc
Test: Antiproliferative MTT assay, HL-60/vinc
Format: cell-based, human
Conditions: SI = IC50 BALB/3T3 / IC50 HL-60/vinc
Procedure: Four human cancer cell lines and one normal cell line were used to evaluate anticancer activity of SAL and its N-benzyl amides: human acute promyelocytic leukemia (HL-60) and its vincristine resistant subline (HL-60/vinc), human colon adenocarcinoma cell lines sensitive (LoVo) and resistant to doxorubicin (LoVo/dx) as well as also normal murine embryonic fibroblast cell line (BALB/3T3). […] Proliferation inhibition of leukemia cells by tested compounds was measured by means of MTT assay. […]
Please provide measured SI HL-60/vinc for the entries that follow.

Would you please look over these solved cases?
compound	value
CC[C@H](C(=O)NCc1ccc(F)cc1)C1CC[C@H](C)C([C@@H](C)[C@H](O)[C@H](C)C(=O)[C@H](CC)C2O[C@]3(C=C[C@@H](O)C4(CC[C@@](C)(C5CC[C@](O)(CC)[C@H](C)O5)O4)O3)[C@H](C)C[C@@H]2C)O1 (some centres unmarked) [F-p]	0.73
CC[C@H](C(=O)NCc1cccc(Cl)c1)C1CC[C@H](C)C([C@@H](C)[C@H](O)[C@H](C)C(=O)[C@H](CC)C2O[C@]3(C=C[C@@H](O)C4(CC[C@@](C)(C5CC[C@](O)(CC)[C@H](C)O5)O4)O3)[C@H](C)C[C@@H]2C)O1 (some centres unmarked) [Cl-m]	2.63
CC[C@@H](C(=O)[C@@H](C)[C@@H](O)[C@H](C)[C@@H]1O[C@@H]([C@@H](CC)C(=O)O)CC[C@@H]1C)[C@H]1O[C@]2(C=C[C@@H](O)[C@]3(CC[C@@](C)([C@H]4CC[C@](O)(CC)[C@H](C)O4)O3)O2)[C@H](C)C[C@@H]1C [SAL, Salinomycin]	5.59

Batch request: SI HL-60/vinc for each of the following compounds.
1. CC[C@H](C(=O)NCc1ccccc1Br)C1CC[C@H](C)C([C@@H](C)[C@H](O)[C@H](C)C(=O)[C@H](CC)C2O[C@]3(C=C[C@@H](O)C4(CC[C@@](C)(C5CC[C@](O)(CC)[C@H](C)O5)O4)O3)[C@H](C)C[C@@H]2C)O1 (some centres unmarked) [Br-o]
2. CC[C@H](C(=O)NCc1ccc(Br)cc1)C1CC[C@H](C)C([C@@H](C)[C@H](O)[C@H](C)C(=O)[C@H](CC)C2O[C@]3(C=C[C@@H](O)C4(CC[C@@](C)(C5CC[C@](O)(CC)[C@H](C)O5)O4)O3)[C@H](C)C[C@@H]2C)O1 (some centres unmarked) [Br-p]
3. CCC(C(=O)NCc1ccccc1[N+](=O)[O-])C1CCC(C)C(C(C)C(O)C(C)C(=O)C(CC)C2OC3(C=CC(O)C4(CCC(C)(C5CCC(O)(CC)C(C)O5)O4)O3)C(C)CC2C)O1 (centres unmarked) [NO2-o]
4. CC[C@H](C(=O)NCc1ccc(Cl)cc1)C1CC[C@H](C)C([C@@H](C)[C@H](O)[C@H](C)C(=O)[C@H](CC)C2O[C@]3(C=C[C@@H](O)C4(CC[C@@](C)(C5CC[C@](O)(CC)[C@H](C)O5)O4)O3)[C@H](C)C[C@@H]2C)O1 (some centres unmarked) [Cl-p, p-chlorobenzyl amide of salinomycin]

OUTPUT:
[1.36, 0.25, 1.40, 0.16]

INPUT: Give the reported SI HL-60/vinc for this compound. CC[C@H](C(=O)NCc1cccc(Br)c1)C1CC[C@H](C)C([C@@H](C)[C@H](O)[C@H](C)C(=O)[C@H](CC)C2O[C@]3(C=C[C@@H](O)C4(CC[C@@](C)(C5CC[C@](O)(CC)[C@H](C)O5)O4)O3)[C@H](C)C[C@@H]2C)O1 (some centres unmarked) [Br-m]
OUTPUT: 1.31
